Where do these numbers come from? They come from paper PMC12169608.

# Run Description: in vitro
# Experimental Setup: hamster, microsomes, pH 7.4
Parameter Measured: remaining at 1 h, 1 µM (%)

* COc1cccc2[nH]c(C(=O)N[C@@H](Cc3cccc(F)c3)C(=O)N[C@@H](C[C@@H]3CCNC3=O)C(=O)COc3c(F)c(F)c(CO)c(F)c3F)cc12 [compound 1] | 0
* CC(C)(O)c1c(F)c(F)c(OCC(=O)[C@H](C[C@@H]2CCNC2=O)NC(=O)[C@@H]2[C@@H]3[C@H](CN2C(=O)[C@@H](NC(=O)C(F)(F)F)C(C)(C)C)C3(C)C)c(F)c1F [compound 14] | 0.1
* COc1cccc2[nH]c(C(=O)N[C@@H](Cc3cccc(F)c3)C(=O)N[C@@H](C[C@@H]3CCNC3=O)C(=O)COc3c(F)c(F)c(C(C)O)c(F)c3F)cc12 (some centres unmarked) [compound 8] | 0
* CC(C)(C)[C@H](NC(=O)C(F)(F)F)C(=O)N1C[C@H]2[C@@H]([C@H]1C(=O)N[C@@H](C[C@@H]1CCNC1=O)C(=O)COc1c(F)c(F)c(CO)c(F)c1F)C2(C)C [compound 7] | 0.15
* COc1cccc2[nH]c(C(=O)N[C@@H](Cc3cccc(F)c3)C(=O)N[C@@H](C[C@@H]3CCNC3=O)C(=O)COc3c(F)c(F)c(C(C)(C)O)c(F)c3F)cc12 [compound 10] | 0

----------
# Assayed System: thrombin (Homo sapiens, UniProt P00734)
# Construct: preincubated with thrombin (10 nM, Sigma); purchased Sigma-Aldrich
# Run Description: Protease panel: thrombin
# Assay type: biochemical
Parameter Measured: inhibition at 10 µM (%)

- CC(C)(O)c1c(F)c(F)c(OCC(=O)[C@H](C[C@@H]2CCNC2=O)NC(=O)[C@@H]2[C@@H]3[C@H](CN2C(=O)[C@@H](NC(=O)C(F)(F)F)C(C)(C)C)C3(C)C)c(F)c1F: 4.1
- COc1cccc2[nH]c(C(=O)N[C@@H](Cc3cccc(F)c3)C(=O)N[C@@H](C[C@@H]3CCNC3=O)C(=O)COc3c(F)c(F)c(C(C)O)c(F)c3F)cc12 (stereo partly shown): -0.2
- COc1cccc2[nH]c(C(=O)N[C@@H](Cc3cccc(F)c3)C(=O)N[C@@H](C[C@@H]3CCNC3=O)C(=O)COc3c(F)c(F)c(CO)c(F)c3F)cc12: 0.2
- CC(C)(C)[C@H](NC(=O)C(F)(F)F)C(=O)N1C[C@H]2[C@@H]([C@H]1C(=O)N[C@@H](C[C@@H]1CCNC1=O)C(=O)COc1c(F)c(F)c(CO)c(F)c1F)C2(C)C: 0.4

----------
# Run Description: in vitro
# Experimental Setup: hamster, hepatocytes, t1/2 (hamster hepatocytes, compound/ritonavir 2:1)
Parameter Measured: half-life at 1 µM (min)

• COc1cccc2[nH]c(C(=O)N[C@@H](Cc3cccc(F)c3)C(=O)N[C@@H](C[C@@H]3CCNC3=O)C(=O)COc3c(F)c(F)c(CO)c(F)c3F)cc12 = 14.4
• COc1cccc2[nH]c(C(=O)N[C@@H](Cc3cccc(F)c3)C(=O)N[C@@H](C[C@@H]3CCNC3=O)C(=O)COc3c(F)c(F)c(C(C)(C)O)c(F)c3F)cc12 = 22.6
• CC(C)(C)[C@H](NC(=O)C(F)(F)F)C(=O)N1C[C@H]2[C@@H]([C@H]1C(=O)N[C@@H](C[C@@H]1CCNC1=O)C(=O)COc1c(F)c(F)c(CO)c(F)c1F)C2(C)C = 25.3
• CC(C)(O)c1c(F)c(F)c(OCC(=O)[C@H](C[C@@H]2CCNC2=O)NC(=O)[C@@H]2[C@@H]3[C@H](CN2C(=O)[C@@H](NC(=O)C(F)(F)F)C(C)(C)C)C3(C)C)c(F)c1F = 27.2
• COc1cccc2[nH]c(C(=O)N[C@@H](Cc3cccc(F)c3)C(=O)N[C@@H](C[C@@H]3CCNC3=O)C(=O)COc3c(F)c(F)c(C(C)O)c(F)c3F)cc12 (some centres unmarked) = 21.9
